Cited source for all entries: the supplement of paper PMC8728848

measurementTarget: Man(a1-3)[Man(a1-6)]Man
protocol: glycan array binding signal (z-score within array); higher = stronger binding
experimentalParameters: glycan notation: IUPAC condensed, linker removed
The entries come from a sample that favours the strongest signals as a whole.
Response key: T means glycan array binding signal (z-score) >= 0.3; F means glycan array binding signal (z-score) < 0.3.

{"binder": "SAG3 (Toxoplasma gondii), Q9BJ39 (protein) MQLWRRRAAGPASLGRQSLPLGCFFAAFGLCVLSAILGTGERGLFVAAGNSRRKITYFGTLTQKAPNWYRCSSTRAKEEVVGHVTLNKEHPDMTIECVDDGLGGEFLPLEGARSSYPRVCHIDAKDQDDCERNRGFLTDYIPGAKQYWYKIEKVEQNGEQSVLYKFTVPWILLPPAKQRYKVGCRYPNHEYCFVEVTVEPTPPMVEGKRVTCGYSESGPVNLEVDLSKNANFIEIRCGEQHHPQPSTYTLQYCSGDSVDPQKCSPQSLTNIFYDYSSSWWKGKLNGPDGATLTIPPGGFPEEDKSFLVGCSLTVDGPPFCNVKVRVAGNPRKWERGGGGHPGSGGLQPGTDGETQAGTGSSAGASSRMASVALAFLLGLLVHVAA", "classification": "T"}
{"binder": "BC2L-A (Burkholderia cenocepacia), Q1BKJ8_BURCA (protein) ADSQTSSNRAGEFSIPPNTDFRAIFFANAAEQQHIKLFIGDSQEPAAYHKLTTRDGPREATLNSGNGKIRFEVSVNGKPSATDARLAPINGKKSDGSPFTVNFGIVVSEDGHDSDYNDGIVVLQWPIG", "classification": "T"}
{"binder": "CV-IIL (Chromobacterium violaceum) (protein) AQQGVFTLPARINFGVTVLVNSAATQHVEIFVDNEPRAAFSGVGTGDNNLGTKVINSGSGNVRVQITANGRQSDLVSSQLVLANKLNLAVVGSEDGTDMDYNDSIVILNWPLG", "classification": "T"}
{"binder": "Pwp1 (Candida glabrata) (protein) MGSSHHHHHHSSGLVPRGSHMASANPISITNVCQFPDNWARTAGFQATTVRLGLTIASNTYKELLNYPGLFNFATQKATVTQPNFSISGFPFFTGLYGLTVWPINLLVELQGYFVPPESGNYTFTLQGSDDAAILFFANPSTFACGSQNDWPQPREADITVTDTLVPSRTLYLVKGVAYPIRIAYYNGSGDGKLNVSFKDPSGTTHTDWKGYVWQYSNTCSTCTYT", "classification": "F"}
{"binder": "Epa1to9 (Candida glabrata) (protein) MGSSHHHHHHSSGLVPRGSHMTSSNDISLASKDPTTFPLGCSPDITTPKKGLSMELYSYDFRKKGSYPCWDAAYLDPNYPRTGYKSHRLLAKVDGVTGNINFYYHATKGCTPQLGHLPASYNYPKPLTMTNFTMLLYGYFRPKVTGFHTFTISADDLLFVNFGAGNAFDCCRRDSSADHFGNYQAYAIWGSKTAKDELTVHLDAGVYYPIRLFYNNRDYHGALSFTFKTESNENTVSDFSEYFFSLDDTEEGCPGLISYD", "classification": "F"}
